The measured values listed here are drawn from the METLIN SMRT retention time set (Domingo-Almenara et al. 2019).

Test: gradient 5% acetonitrile 3 min, to 50% in 2 min, to 85% in 15 min, held 3 min, 100 µL/min
Conditions: column: Zorbax Extend-C18 2.1 x 50 mm; eluents: water / acetonitrile, 0.1% formic acid
parameter: RP-LC retention time (s)

INSERT INTO results (compound, result_number) VALUES
  ('O=C(NCc1ccc2c(c1)OCO2)c1nnc(-c2ccc(S(=O)(=O)N3CCOCC3)cc2)o1', 804),
  ('CCOc1ccc(-c2[nH]ncc2CNS(=O)(=O)c2ccc(C(F)(F)F)cc2)cc1', 918),
  ('COC(=O)c1c(C)[nH]c(C(=O)N2CCCC(C(=O)NCCc3ccco3)C2)c1C (centres undefined)', 698),
  ('CSc1ccc(CNC(=O)c2c(C)sc3ccn(C)c(=O)c23)cc1', 784),
  ('O=C(c1cccs1)N1CCN(c2cc(Cl)ccc2Cl)CC1', 1020),
  ('O=c1c2ccc(O)cc2oc2cc(O)ccc12', 612),
  ('COC[C@@H](c1ccc(C(F)(F)F)cc1)N1CCN(C2(C)CCN(C(=O)c3c(C)ncnc3C)CC2)C[C@@H]1C', 744),
  ('O=C(Nc1cccc(Br)c1)c1cc(-c2ccccn2)n[nH]1', 843),
  ('O=S(=O)(c1ccccc1)N1CCC2(CC1)NCCN=C2NCc1ccc(F)c(Cl)c1', 730);
